molecular target: Dual specificity mitogen-activated protein kinase kinase 1 (Homo sapiens); assay: Inhibition of human wild type MEK1 assessed as residual activity at 0.1 uM relative to control
measured_parameter: Activity (%)
Give the quantity in %, number only.

given_smiles	tested_target	result_unit	measurement
COc1ccc2c(c1)c(/C=C1\C(=O)Nc3ccc(S(N)(=O)=O)cc31)cn2C	Dual specificity mitogen-activated protein kinase kinase 1 (Homo sapiens)	%	82
COc1ccc2[nH]cc(/C=C3\C(=O)Nc4ccc(S(N)(=O)=O)cc43)c2c1	Dual specificity mitogen-activated protein kinase kinase 1 (Homo sapiens)	%	87
CNS(=O)(=O)c1ccc2c(c1)/C(=C/c1cn(C)c3ccc(OC)cc13)C(=O)N2	Dual specificity mitogen-activated protein kinase kinase 1 (Homo sapiens)	%	104
CN(C)S(=O)(=O)c1ccc2c(c1)/C(=C/c1cn(C)c3ccc(O)cc13)C(=O)N2	Dual specificity mitogen-activated protein kinase kinase 1 (Homo sapiens)	%	107
Cn1cc(/C=C2\C(=O)Nc3ccc(S(N)(=O)=O)cc32)c2ccccc21	Dual specificity mitogen-activated protein kinase kinase 1 (Homo sapiens)	%	67

Request the reported Activity associated with COc1ccc2c(c1)c(/C=C1\C(=O)Nc3ccc(S(=O)(=O)N(C)C)cc31)cn2C 104
